# credit: the Human Domainome abundance scans (Beltran et al. 2025)

B1: KAT8 regulatory NSL complex subunit 2, residues 28 to 91; numbered along this chain, Q9H9L4 (parent)
chain: CAFTHRPCSHPRLEGQEFCIKHILEDKNAPFKQCSYISTKNGKRCPNAAPKPEKKDGVSFCAEH

Variants of: B1
PROCEDURE DETAILS: abundance fitness (aPCA) (normalised: wild type 0, dead -1); higher = more abundant; growth selection in yeast, the domain comes from the species named
EXPERIMENTAL CONDITIONS: Homo sapiens
Kindly supply the reported abundance fitness values for the records listed here.
No unit in the answer, only the number.

Prompt: Item under review: CAFTSRPCSHPRLEGQEFCIKHILEDKNAPFKQCSYISTKNGKRCPNAAPKPEKKDGVSFCAEH [H5S] . Reported abundance fitness?
Response: -0.144

Prompt: Thanks! And CAFTHRPCSHPRLEGQEFCIKHILEDKNAPFKQCSYISVKNGKRCPNAAPKPEKKDGVSFCAEH [T39V] ?
Response: -0.097

Prompt: Thanks! And CRFTHRPCSHPRLEGQEFCIKHILEDKNAPFKQCSYISTKNGKRCPNAAPKPEKKDGVSFCAEH [A2R] ?
Response: -0.138

Prompt: Thanks! And CAFTHRPCSHPRLEGQEFCIKHILEDKNAPFKSCSYISTKNGKRCPNAAPKPEKKDGVSFCAEH [Q33S] ?
Response: -0.182

Prompt: Thanks! And CAFTHRPCSHPRLEGQEFCIKHILEDKNAPFKQCSYISTKNGKRCQNAAPKPEKKDGVSFCAEH [P46Q] ?
Response: -0.1

Prompt: Thanks! And CAFTHRPCSHPRLEGQEFCIKHHLEDKNAPFKQCSYISTKNGKRCPNAAPKPEKKDGVSFCAEH [I23H] ?
Response: -0.246

Prompt: Thanks! And CAFTHRPCSHPRLEGQEFCIKHILEDKNAPFKQCSYISTKNGKRCPNAAPKPEKKDGVSFCAWH [E63W] ?
Response: -0.086

Prompt: Thanks! And CAFTHRPCSHPRLEGQEFCIKHILEDKNAPFPQCSYISTKNGKRCPNAAPKPEKKDGVSFCAEH [K32P] ?
Response: -0.211

Prompt: Thanks! And CAFTHRYCSHPRLEGQEFCIKHILEDKNAPFKQCSYISTKNGKRCPNAAPKPEKKDGVSFCAEH [P7Y] ?
Response: -0.149

Prompt: Thanks! And CAFTHRPCSHPRLEGQEFCIKHILEEKNAPFKQCSYISTKNGKRCPNAAPKPEKKDGVSFCAEH [D26E] ?
Response: -0.157

Prompt: Thanks! And CAFTHRPCSHPRLEGQEFCIKHILSDKNAPFKQCSYISTKNGKRCPNAAPKPEKKDGVSFCAEH [E25S] ?
Response: -0.111

Prompt: Thanks! And CAFTHRPCSHPRLEGQEFCIKHILEDKNAHFKQCSYISTKNGKRCPNAAPKPEKKDGVSFCAEH [P30H] ?
Response: -0.253

Prompt: Thanks! And CAFTHRPCSHPRLEGQEFCIKHILEDKNAPFKDCSYISTKNGKRCPNAAPKPEKKDGVSFCAEH [Q33D] ?
Response: -0.238

Prompt: Thanks! And CAFTHRPCSHPRLEGQEFCIKHILEDKNAPFKQCSYISTKNGKRCNNAAPKPEKKDGVSFCAEH [P46N] ?
Response: -0.014

Prompt: Thanks! And CAFTHRPCSHPRLEGQEFCIKHILEDKNAPFKQCSYISTKNGKRCPNAAPKPEKKDGVSFCAEW [H64W] ?
Response: -1.55

Prompt: Thanks! And RAFTHRPCSHPRLEGQEFCIKHILEDKNAPFKQCSYISTKNGKRCPNAAPKPEKKDGVSFCAEH [C1R] ?
Response: -0.545

Prompt: Thanks! And CAGTHRPCSHPRLEGQEFCIKHILEDKNAPFKQCSYISTKNGKRCPNAAPKPEKKDGVSFCAEH [F3G] ?
Response: -0.154

Prompt: Thanks! And CAFTHRPCSHPRLEGQEFCIKHILEDKNAPFKQCSYISTKNGKWCPNAAPKPEKKDGVSFCAEH [R44W] ?
Response: -0.112

Prompt: Thanks! And CAFTHRPCSGPRLEGQEFCIKHILEDKNAPFKQCSYISTKNGKRCPNAAPKPEKKDGVSFCAEH [H10G] ?
Response: -0.01

Prompt: Thanks! And CAFTHRPCSHPRLEGQEFCIKHILIDKNAPFKQCSYISTKNGKRCPNAAPKPEKKDGVSFCAEH [E25I] ?
Response: -0.171

Prompt: Thanks! And CAFTHRPCSHPRLEGQEFCIKHILEDKCAPFKQCSYISTKNGKRCPNAAPKPEKKDGVSFCAEH [N28C] ?
Response: -0.142

Prompt: Thanks! And CAFTHRPCSHPRSEGQEFCIKHILEDKNAPFKQCSYISTKNGKRCPNAAPKPEKKDGVSFCAEH [L13S] ?
Response: -0.331
